meta.source: patent EP3057949B1

SYSTEM_NAME: human RORγt LBD (Homo sapiens, UniProt P51449)
PROCEDURE_TEXT: RORγt (LBD) Reporter Assay (GAL4 luciferase, HEK293T cells)
MEASUREMENT_SETUP: compounds for 24 hours
PROPERTY_MEASURED: IC50 (nM)

In [3]: df
Out[3]:
                                   compound                               system_name  property_measured  recorded_measurement
0  Cc1ncc(C(O)c2ccc3nc(N4CCC4)c(Cc4ccc(C(F)(F)F)cc4)c(Cl)c3c2)n1C (single isomer, unassigned) [Example 22b]  human RORγt LBD (Homo sapiens, UniProt P51449)               IC50                   240
1  COc1nc2ccc(C(O)c3cnc(C)n3C)cc2c(Cl)c1Cc1ccc(C(F)(F)F)cc1 (single isomer, unassigned) [Example 15c]  human RORγt LBD (Homo sapiens, UniProt P51449)               IC50                    80
2  COc1nc2ccc(C(O)C3CCN(C(C)=O)CC3)cc2c(Cl)c1Cc1ccc(C(F)(F)F)cc1 (stereo not shown)  human RORγt LBD (Homo sapiens, UniProt P51449)               IC50                   790

====

SYSTEM_NAME: human RORγt LBD (Homo sapiens, UniProt P51449)
Construct: expressed in transfected cells; host or cells: HEK293T
PROCEDURE_TEXT: RORγt (LBD) Reporter Assay (GAL4 luciferase, HEK293T cells)
Assay type: cell-based
MEASUREMENT_SETUP: compounds for 24 hours
pIC50: −log10 of the molar value.
Listed here: items and their measured pIC50.
PROPERTY_MEASURED: pIC50

>>> df
                                   compound  recorded_measurement
0  COc1nc2ccc(C(O)c3cnnn3C)cc2c(Cl)c1Cc1ccc(C(F)(F)F)cc1 (stereo not shown) [Example 17a]                  6.51
1  Cc1ncc(C(O)c2ccc3nc(N4CCC4)c(Cc4ccc(C(F)(F)F)cc4)c(Cl)c3c2)n1C (stereo not shown) [Example 22a]                  6.60
2  COc1nc2ccc(C(O)c3cncn3C)cc2c(Cl)c1Cc1ccc(C(F)(F)F)cc1 (single isomer, unassigned) [Example 18c]                  6.49
3  Cc1ccc(C(O)c2ccc3nc(N4CCC4)c(Cc4ccc(C(F)(F)F)cc4)c(Cl)c3c2)c(C)n1 (single isomer, unassigned) [Example 23c]                  6.55
4  COc1nc2ccc(C(O)c3cncn3C)cc2c(Cl)c1Cc1ccc(C(F)(F)F)cc1 (single isomer, unassigned) [Example 18b]                  6.29

====

SYSTEM_NAME: full-length human RORγt (Homo sapiens)
Sequence (P51449 1-497 isoform P51449-2): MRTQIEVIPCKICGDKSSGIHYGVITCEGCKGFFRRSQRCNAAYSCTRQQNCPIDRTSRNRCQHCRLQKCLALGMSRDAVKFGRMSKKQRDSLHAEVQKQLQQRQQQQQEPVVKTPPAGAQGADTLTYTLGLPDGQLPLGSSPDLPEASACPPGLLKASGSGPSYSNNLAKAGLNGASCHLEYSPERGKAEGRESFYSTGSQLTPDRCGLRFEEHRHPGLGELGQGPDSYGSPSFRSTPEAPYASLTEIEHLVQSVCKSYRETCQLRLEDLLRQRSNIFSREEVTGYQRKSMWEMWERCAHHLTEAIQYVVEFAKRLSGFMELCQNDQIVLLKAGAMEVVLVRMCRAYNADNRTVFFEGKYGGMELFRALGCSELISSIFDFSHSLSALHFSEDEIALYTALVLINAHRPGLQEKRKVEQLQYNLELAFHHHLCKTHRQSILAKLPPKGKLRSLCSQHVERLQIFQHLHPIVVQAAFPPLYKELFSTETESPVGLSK
PROCEDURE_TEXT: RORγt (full-length human) Reporter Assay (GAL4 luciferase, HEK293T cells)
MEASUREMENT_SETUP: overnight (16 to 20 hours) incubation, read-out: RORγt (FL) Reporter Assay, IC50
Listed here: items and their measured IC50.
PROPERTY_MEASURED: IC50 (nM)

>>> df
                                   compound                             system_name  recorded_measurement
0  COc1nc2ccc(C(O)c3cnc(C)n3C)cc2c(Cl)c1Cc1ccc(C(F)(F)F)cc1 (single isomer, unassigned) [Example 15b]  full-length human RORγt (Homo sapiens)                    91
1  COc1nc2ccc(C(O)c3cnc(C)n3C)cc2c(Cl)c1Cc1ccc(C(F)(F)F)cc1 (single isomer, unassigned) [Example 15c]  full-length human RORγt (Homo sapiens)                    58
2  COc1nc2ccc(C(O)c3c(C)noc3C)cc2c(Cl)c1Cc1ccc(C(F)(F)F)cc1 (single isomer, unassigned) [Example 20c]  full-length human RORγt (Homo sapiens)                    23
3  COc1nc2ccc(C(O)c3c(C)nn(C)c3C)cc2c(Cl)c1Cc1ccc(C(F)(F)F)cc1 (stereo not shown) [Example 34a]  full-length human RORγt (Homo sapiens)                    20
4  COc1nc2ccc(C(O)c3c(C)noc3C)cc2c(Cl)c1Cc1ccc(C(F)(F)F)cc1 (single isomer, unassigned) [Example 20b]  full-length human RORγt (Homo sapiens)                   300
5  COc1nc2ccc(C(O)c3c(C)noc3C)cc2c(Cl)c1Cc1ccc(C(F)(F)F)cc1 (stereo not shown) [Example 20a]  full-length human RORγt (Homo sapiens)                    52
6  COc1nc2ccc(C(O)c3ccc(C#N)cc3)cc2c(Cl)c1Cc1ccc(C#N)cc1 (stereo not shown)  full-length human RORγt (Homo sapiens)                   150

====

SYSTEM_NAME: human RORγt ligand binding domain (RORγt LBD) (Homo sapiens, UniProt P51449)
Construct: His-tag (N); TurboTEV protease cleavage site (ENLYFQG) (N)
Sequence (P51449 258-518): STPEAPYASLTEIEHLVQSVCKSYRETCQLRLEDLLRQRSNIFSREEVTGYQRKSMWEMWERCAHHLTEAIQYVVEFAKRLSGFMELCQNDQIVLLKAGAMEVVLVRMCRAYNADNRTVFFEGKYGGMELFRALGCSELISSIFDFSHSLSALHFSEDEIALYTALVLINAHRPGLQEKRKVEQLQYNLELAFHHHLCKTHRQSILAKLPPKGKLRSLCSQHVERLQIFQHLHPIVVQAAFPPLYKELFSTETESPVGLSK
PROCEDURE_TEXT: ThermoFluor® Assay (RORγt thermal shift binding)
MEASUREMENT_SETUP: 0.065 mg/mL RORγt, 60 µM 1,8-ANS, pH 7.0; estimated from concentration response curves
PROPERTY_MEASURED: Kd

>>> print(df.to_string())
                                   molecule  recorded_measurement
0  Cc1ccc(C(O)c2ccc3nc(N4CCC4)c(Cc4ccc(C(F)(F)F)cc4)c(Cl)c3c2)c(C)n1 (single isomer, unassigned) [Example 23c]                200 nM
1  Cc1ncc(C(O)c2ccc3nc(N4CCC4)c(Cc4ccc(-n5cccn5)cc4)c(Cl)c3c2)n1C (single isomer, unassigned) [Example 21c]                190 nM
2  COc1nc2ccc(C(O)c3oc(C)nc3C)cc2c(Cl)c1Cc1ccc(C(F)(F)F)cc1 (stereo not shown) [Example 19]                350 nM
3  COc1nc2ccc(C(O)C3CN(C(=O)OC(C)(C)C)C3)cc2c(Cl)c1Cc1ccc(C(F)(F)F)cc1 (stereo not shown) [Example 32]              16000 nM
4  Cc1noc(C)c1C(O)c1ccc2nc(Cl)c(-c3ccccc3)c(Cl)c2c1 (stereo not shown) [Example 1]                550 nM
5  COc1nc2ccc(C(O)c3ccc(C)nc3C)cc2c(Cl)c1Cc1ccc(C(F)(F)F)cc1 (single isomer, unassigned) [Example 14b]                130 nM
6  Cc1cc(C(O)c2cncn2C)cc2c(Cl)c(-c3ccccc3)c(Cl)nc12 (stereo not shown) [Example 4]               4900 nM

====

SYSTEM_NAME: human RORγt LBD (Homo sapiens, UniProt P51449)
PROCEDURE_TEXT: RORγt (LBD) Reporter Assay (GAL4 luciferase, HEK293T cells)
MEASUREMENT_SETUP: compounds for 24 hours
PROPERTY_MEASURED: IC50 (nM)

In [3]: df
Out[3]:
                                   compound                               system_name  result_modifier  recorded_measurement
0  Cc1ncc(C(O)c2ccc3nc(N4CCC4)c(Cc4ccc(-n5cccn5)cc4)c(Cl)c3c2)n1C (centres unmarked) [Example 21a]  human RORγt LBD (Homo sapiens, UniProt P51449)                =                   380
1  OC(c1ccncc1)c1ccc2nc(Cl)c(-c3ccccc3)c(Cl)c2c1 (centres unmarked)  human RORγt LBD (Homo sapiens, UniProt P51449)                >                  6000
2  COc1nc2ccc(C(O)c3ccc(C)nc3C)cc2cc1Cc1ccc(C(F)(F)F)cc1 (centres unmarked)  human RORγt LBD (Homo sapiens, UniProt P51449)                =                  1900
3  Cn1cncc1C(O)c1ccc2nc(Cl)c(-c3ccccc3)c(Cl)c2c1 (centres unmarked)  human RORγt LBD (Homo sapiens, UniProt P51449)                >                  6000
4  COc1nc2ccc(C(O)c3cnc(C)n3C)cc2c(Cl)c1Cc1ccc(C(F)(F)F)cc1 (centres unmarked) [Example 15a]  human RORγt LBD (Homo sapiens, UniProt P51449)                =                    43
5  COc1nc2ccc(C(O)c3oc(C)nc3C)cc2c(Cl)c1Cc1ccc(C(F)(F)F)cc1 (centres unmarked)  human RORγt LBD (Homo sapiens, UniProt P51449)                =                   240
6  COc1nc2ccc(C(O)c3cnnn3C)cc2c(Cl)c1Cc1ccc(C(F)(F)F)cc1 (single isomer, unassigned) [Example 17b]  human RORγt LBD (Homo sapiens, UniProt P51449)                =                   240
